Below, each entry is listed alongside its reported IC50.
target: cMET (Homo sapiens, UniProt P08581)
Sequence (P08581 25-1390): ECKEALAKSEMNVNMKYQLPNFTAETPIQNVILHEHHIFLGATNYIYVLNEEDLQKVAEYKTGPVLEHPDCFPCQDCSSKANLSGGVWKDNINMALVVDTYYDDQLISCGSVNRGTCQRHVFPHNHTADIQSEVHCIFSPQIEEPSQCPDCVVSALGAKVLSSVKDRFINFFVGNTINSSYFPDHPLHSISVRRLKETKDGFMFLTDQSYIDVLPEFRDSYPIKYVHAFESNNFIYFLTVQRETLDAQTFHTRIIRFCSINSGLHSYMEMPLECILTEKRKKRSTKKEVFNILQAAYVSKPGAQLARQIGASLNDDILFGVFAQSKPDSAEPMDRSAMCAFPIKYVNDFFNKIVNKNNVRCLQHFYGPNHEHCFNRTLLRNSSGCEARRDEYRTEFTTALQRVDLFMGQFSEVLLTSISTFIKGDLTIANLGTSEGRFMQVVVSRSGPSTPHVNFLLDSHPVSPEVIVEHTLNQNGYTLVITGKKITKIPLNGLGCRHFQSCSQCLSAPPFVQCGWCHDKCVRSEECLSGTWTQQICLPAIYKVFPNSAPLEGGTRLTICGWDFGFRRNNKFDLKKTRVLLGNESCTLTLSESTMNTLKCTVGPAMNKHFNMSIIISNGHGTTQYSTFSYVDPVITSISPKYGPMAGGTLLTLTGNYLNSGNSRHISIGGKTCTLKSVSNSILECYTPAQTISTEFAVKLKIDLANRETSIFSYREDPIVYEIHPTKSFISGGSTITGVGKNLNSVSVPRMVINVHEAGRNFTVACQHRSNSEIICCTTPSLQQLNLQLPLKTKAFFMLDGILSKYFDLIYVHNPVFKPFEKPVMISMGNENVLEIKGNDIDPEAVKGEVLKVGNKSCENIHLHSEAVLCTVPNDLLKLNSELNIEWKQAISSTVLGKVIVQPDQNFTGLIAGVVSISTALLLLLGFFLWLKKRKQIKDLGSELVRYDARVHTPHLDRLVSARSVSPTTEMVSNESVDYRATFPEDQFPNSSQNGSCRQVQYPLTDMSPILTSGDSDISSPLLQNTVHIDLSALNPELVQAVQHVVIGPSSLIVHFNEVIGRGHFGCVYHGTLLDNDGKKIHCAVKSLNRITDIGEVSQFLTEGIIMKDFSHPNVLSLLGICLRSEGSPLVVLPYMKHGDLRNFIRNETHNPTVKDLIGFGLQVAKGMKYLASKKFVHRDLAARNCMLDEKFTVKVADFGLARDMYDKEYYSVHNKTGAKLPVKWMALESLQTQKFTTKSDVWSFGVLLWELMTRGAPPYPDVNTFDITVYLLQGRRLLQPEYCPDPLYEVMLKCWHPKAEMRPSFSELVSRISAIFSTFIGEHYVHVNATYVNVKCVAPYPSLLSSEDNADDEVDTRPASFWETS

[Q] Notebook entry, cMET (Homo sapiens, UniProt P08581) assay: IC50 of Nc1cc(Oc2ccc(NC(=O)c3cnn(-c4ncccc4F)c3C(F)(F)F)cc2F)ccn1 = ?
[A] > 5 µM

[Q] Recorded IC50 for Nc1nccc(Oc2ccc(NC(=O)c3cnn(-c4cc(F)ccn4)c3C(F)(F)F)cc2F)c1Cl with cMET (Homo sapiens, UniProt P08581), please?
[A] > 5 µM

[Q] Query the reported IC50 for cMET (Homo sapiens, UniProt P08581); item: Nc1ncnc(Oc2ccc(NC(=O)c3cnn(-c4ncccc4Cl)c3C(F)(F)F)cc2F)c1Cl
[A] 0.5 to 5 µM

[Q] Form field - read-out: IC50; system: cMET (Homo sapiens, UniProt P08581); submitted item: Nc1nccc(Oc2ccc(NC(=O)c3cnn(-c4ncccc4F)c3C(F)(F)F)cc2F)c1I
[A] 0.5 to 5 µM

[Q] Form field: IC50 recorded for Nc1nccc(Oc2ccc(NC(=O)c3cnn(-c4ncc(O)cn4)c3C(F)(F)F)cc2F)c1Cl with cMET (Homo sapiens, UniProt P08581) (enter value)
[A] > 5 µM

[Q] Notebook: pull reported IC50 for cMET (Homo sapiens, UniProt P08581), entry CCc1c(C(=O)Nc2ccc(Oc3ccnc(N)c3I)c(F)c2)cnn1-c1ncccc1Cl
[A] 0.5 to 5 µM
